Ki: recorded values
target: C1b domain of human PKCδ (Homo sapiens); construct: Genes encoding C1b domains of human PKCα, δ, ε, θ, and PKD1 (PKCμ) were synthesized; made in house; host or cells: E. coli BL21(DE3); test: Competitive 3H-PDBu binding to C1b domain of PKCδ; conditions: Ki PKCδ, 3H-PDBu competition
Sequence (Q05655 230-280 limits assumed): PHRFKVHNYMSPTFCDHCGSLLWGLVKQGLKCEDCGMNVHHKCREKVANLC

Example results:
- COMPOUND: "CC1=C[C@H]2[C@@]3(O)[C@H](C)C[C@]4(OC(=O)[C@@H](N)CCc5ccccc5)[C@H]([C@@H]3C=C(CO)C[C@]2(O)C1=O)C4(C)C [Compound K101-C135602]"
  Ki: "1 to 30 nM"
- COMPOUND: "CC1=C[C@H]2[C@@]3(O)[C@H](C)C[C@]4(OC(=O)CCc5ccc(C(F)(F)F)cc5)[C@H]([C@@H]3C=C(CO)C[C@]2(O)C1=O)C4(C)C"
  Ki: "< 5 nM"

Field: next compound
API: value(readout=Ki, system=C1b domain of human PKCδ (Homo sapiens)) for record CC1=C[C@H]2[C@@]3(O)[C@H](C)C[C@]4(OC(=O)[C@@H](N)CC5CCCC5)[C@H]([C@@H]3C=C(CO)C[C@]2(O)C1=O)C4(C)C
5 to 10 nM

----------
pKi: recorded values
molecular target: C1b domain of human PKCε (Homo sapiens, UniProt Q02156); construct: Genes encoding C1b domains of human PKCα, δ, ε, θ, and PKD1 (PKCμ) were synthesized; made in house; host or cells: E. coli BL21(DE3); test: Competitive 3H-PDBu binding to C1b domain of PKCε
Sequence (Q02156 242-292 limits assumed): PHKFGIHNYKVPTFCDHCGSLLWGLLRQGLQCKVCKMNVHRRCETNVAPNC
pKi: −log10 of the molar value.

Example results:
- COMPOUND: "CC1=C[C@H]2[C@@]3(O)[C@H](C)C[C@]4(OC(=O)CC5CC6(C5)CN(C(=O)OC(C)(C)C)C6)[C@H]([C@@H]3C=C(CO)C[C@]2(O)C1=O)C4(C)C [Compound K101-C1312]"
  pKi: "7.52 to 9.00"
- COMPOUND: "CC1=C[C@H]2[C@@]3(O)[C@H](C)C[C@]4(OC(=O)CCC5CCCC5)[C@H]([C@@H]3C=C(CO)C[C@]2(O)C1=O)C4(C)C [Compound K101-C1301]"
  pKi: "8.00 to 8.30"
- COMPOUND: "CC1=C[C@H]2[C@@]3(O)[C@H](C)C[C@]4(OC(=O)[C@@H](N)CCC5CCCCC5)[C@H]([C@@H]3C=C(CO)C[C@]2(O)C1=O)C4(C)C [Compound K101-C1345]"
  pKi: "7.52 to 9.00"
- COMPOUND: "CC1=C[C@H]2[C@@]3(O)[C@H](C)C[C@]4(OC(=O)[C@@H](N)C(C)(C)c5ccc(C(F)(F)F)cc5)[C@H]([C@@H]3C=C(CO)C[C@]2(O)C1=O)C4(C)C [Compound K101-C134902]"
  pKi: "7.52 to 9.00"
- COMPOUND: "CC1=C[C@H]2[C@@]3(O)[C@H](C)C[C@]4(OC(=O)CCCc5ccccc5)[C@H]([C@@H]3C=C(CO)C[C@]2(O)C1=O)C4(C)C [Compound K101-C1324]"
  pKi: "> 8.30"
- COMPOUND: "CC1=C[C@H]2[C@@]3(O)[C@H](C)C[C@]4(OC(=O)C(C)(C)C)[C@H]([C@@H]3C=C(CO)C[C@]2(O)C1=O)C4(C)C [Compound K101-C1308]"
  pKi: "7.52 to 9.00"
- COMPOUND: "CC1=C[C@H]2[C@@]3(O)[C@H](C)C[C@]4(OC(=O)[C@@H](N)CC5CCCCC5)[C@H]([C@@H]3C=C(CO)C[C@]2(O)C1=O)C4(C)C [Compound K101-C1327]"
  pKi: "7.52 to 9.00"
- COMPOUND: "CC1=C[C@H]2[C@@]3(O)[C@H](C)C[C@]4(OC(=O)[C@H](N)CCCCCCCCc5ccccc5)[C@H]([C@@H]3C=C(CO)C[C@]2(O)C1=O)C4(C)C [Compound K101-C136101]"
  pKi: "7.52 to 9.00"

Field: next compound
Dear colleague, I am looking for the recorded pKi of the following compound: CC1=C[C@H]2[C@@]3(O)[C@H](C)C[C@]4(OC(=O)[C@@H](N)CCCCCCc5ccc(C(F)(F)F)cc5)[C@H]([C@@H]3C=C(CO)C[C@]2(O)C1=O)C4(C)C [Compound K101-C135902]
7.52 to 9.00
